Target: Sulfolobus solfataricus MAT (sMAT) (Saccharolobus solfataricus)
Sequence (Q980S9 whole entry): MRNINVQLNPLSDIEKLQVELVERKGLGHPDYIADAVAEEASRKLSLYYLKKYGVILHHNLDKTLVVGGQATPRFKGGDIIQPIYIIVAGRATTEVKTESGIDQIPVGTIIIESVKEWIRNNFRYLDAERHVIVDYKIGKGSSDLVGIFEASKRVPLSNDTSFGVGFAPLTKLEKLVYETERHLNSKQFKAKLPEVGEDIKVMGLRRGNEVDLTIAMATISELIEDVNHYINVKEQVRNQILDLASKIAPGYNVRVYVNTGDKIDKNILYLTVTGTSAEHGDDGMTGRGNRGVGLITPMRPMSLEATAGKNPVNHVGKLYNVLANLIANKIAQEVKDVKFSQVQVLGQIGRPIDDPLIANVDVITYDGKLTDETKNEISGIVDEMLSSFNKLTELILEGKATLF
Type: biochemical
Conditions: 2 mM analog, 1 mM ATP, 5 μM sMAT, pH 8.0, 4 h at 65° C.; average of two assays
Rule: measured Percentage Turn-Over (sMAT) below 50% gets t; anything equal to or greater than 50% gets f.

{"COMPOUND": "CCSCC[C@H](N)C(=O)O [compound 3]", "MEASURED_TARGET": "Sulfolobus solfataricus MAT (sMAT) (Saccharolobus solfataricus)", "CLASS_LABEL": "f"}

Now consider the entry below.
Problem: For the compound CC(C)SCC[C@H](N)C(=O)O [compound 9] , is Percentage Turn-Over (sMAT) under 50%?
f

----------
Listed here: items and their measured Percentage Turn-over hMAT2A.
Target: human MAT II catalytic alpha subunit alone (hMAT2A) (Homo sapiens)
Sequence (P31153 whole entry): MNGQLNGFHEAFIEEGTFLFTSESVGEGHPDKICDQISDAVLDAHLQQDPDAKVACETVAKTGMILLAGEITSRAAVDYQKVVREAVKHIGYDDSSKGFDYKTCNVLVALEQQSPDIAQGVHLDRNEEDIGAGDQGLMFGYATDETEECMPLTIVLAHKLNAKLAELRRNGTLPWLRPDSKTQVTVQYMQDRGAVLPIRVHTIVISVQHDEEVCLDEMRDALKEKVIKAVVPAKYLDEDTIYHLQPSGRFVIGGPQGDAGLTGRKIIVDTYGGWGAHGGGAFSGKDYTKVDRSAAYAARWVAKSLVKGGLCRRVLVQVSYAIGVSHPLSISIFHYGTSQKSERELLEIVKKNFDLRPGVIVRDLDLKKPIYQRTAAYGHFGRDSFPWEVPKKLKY
Experiment: MAT assay, turnover of S/Se-Met analogs to S(Se)AM analogs (RP-HPLC end point)
Format: biochemical
Conditions: 2 mM Met analog, 1 mM ATP, 5 μM MAT, pH 8, 4 h, 37° C.; average of two assays
Method: Standard uniform assay conditions (2 mM Met analog, 1 mM ATP, 5 μM MAT, 25 mM Tris, 5 mM MgCl2, 50 mM KCl, pH 8, 4 h) were adopted to facilitate this broad assessment. […] Production of SAM analogs was determined by an RP-HPLC end point assay to afford complete analysis of the desired SAM analog and/or any corresponding degradation products known to directly derive from the desired SAM analog intermediate. […]
Number in %, nothing else.

{"COMPOUND": "CC(C)CCSCC[C@H](N)C(=O)O", "MEASURED_TARGET": "human MAT II catalytic alpha subunit alone (hMAT2A) (Homo sapiens)", "UNIT_SYMBOL": "%", "RECORDED_VALUE": 0}
{"COMPOUND": "CCSCC[C@H](N)C(=O)O", "MEASURED_TARGET": "human MAT II catalytic alpha subunit alone (hMAT2A) (Homo sapiens)", "UNIT_SYMBOL": "%", "RECORDED_VALUE": 90}
{"COMPOUND": "CC(C)CSCC[C@H](N)C(=O)O", "MEASURED_TARGET": "human MAT II catalytic alpha subunit alone (hMAT2A) (Homo sapiens)", "UNIT_SYMBOL": "%", "RECORDED_VALUE": 0}
{"COMPOUND": "C[Se]CC[C@H](N)C(=O)O [2-Se, L-selenomethionine, reference compound]", "MEASURED_TARGET": "human MAT II catalytic alpha subunit alone (hMAT2A) (Homo sapiens)", "UNIT_SYMBOL": "%", "RECORDED_VALUE": 100}
{"COMPOUND": "[N-]=[N+]=NCCSCC[C@H](N)C(=O)O", "MEASURED_TARGET": "human MAT II catalytic alpha subunit alone (hMAT2A) (Homo sapiens)", "UNIT_SYMBOL": "%", "RECORDED_VALUE": 18}

Percentage Turn-over hMAT2A measured on `[N-]=[N+]=NCCCSCC[C@H](N)C(=O)O` = 19

Value of measured Percentage Turn-over hMAT2A for the entry `NC/C=C/C[Se]CC[C@H](N)C(=O)O` : 16

Documented Percentage Turn-over hMAT2A of `CC(C)=CC[Se]CC[C@H](N)C(=O)O` : 9

// sample `CC(C)=CCSCC[C@H](N)C(=O)O` , its Percentage Turn-over hMAT2A was 4

Percentage Turn-over hMAT2A reading for `[N-]=[N+]=NC/C=C/C[Se]CC[C@H](N)C(=O)O` : 9

The compound listed as `C#CCCSCC[C@H](N)C(=O)O` has a reported Percentage Turn-over hMAT2A of 12

Record summary for `CC(C)[Se]CC[C@H](N)C(=O)O` : reported Percentage Turn-over hMAT2A = 11

----------
Target: Sulfolobus solfataricus MAT (sMAT) (Saccharolobus solfataricus)
Assay type: biochemical
Details: 2 mM analog, 1 mM ATP, 5 μM sMAT, pH 8.0, 4 h at 65° C.; average of two assays
# Percentage Turn-Over (sMAT) per record follows
Quick note: number first, unit second.

{"RECORD_SMILES": "[N-]=[N+]=NCCCSCC[C@H](N)C(=O)O", "REPORTED_METRIC": "Percentage Turn-Over (sMAT)", "RECORDED_VALUE": "60%"}

# compound `C/C=C/CSCC[C@H](N)C(=O)O` ; its Percentage Turn-Over (sMAT) = 27%

The compound listed as `C=CCSCC[C@H](N)C(=O)O` shows Percentage Turn-Over (sMAT) equal to 27%

Percentage Turn-Over (sMAT) reported for this compound `[N-]=[N+]=NCCSCC[C@H](N)C(=O)O` : 50%

Just for reference, patent US9879043B1 is where these values come from.
